measured-target: human neutrophil elastase (HNE) (Homo sapiens, UniProt P08246)
Sequence (P08246 30-267): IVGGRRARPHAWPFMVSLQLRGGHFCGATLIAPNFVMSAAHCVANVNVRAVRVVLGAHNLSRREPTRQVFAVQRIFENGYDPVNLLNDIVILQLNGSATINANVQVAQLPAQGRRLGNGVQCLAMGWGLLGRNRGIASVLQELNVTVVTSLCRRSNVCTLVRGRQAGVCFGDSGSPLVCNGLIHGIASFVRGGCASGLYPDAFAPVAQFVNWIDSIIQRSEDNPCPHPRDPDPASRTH
test-name: Potency (I50 Determination), HNE inhibition
measurement-parameters: substrate N-methoxysuccinyl-ala-ala-pro-val-pNA, pH 7.7, 7 minutes incubation at room temperature, 405 nm
Strictly below 1000 nM in IC50: 1.0. Otherwise: 0.0.

The following compounds have reported results that may help.
[[record]]
compound = "CCC(C(=O)Oc1ccc(SC)cc1)c1ccoc1 (stereo not drawn)"
classification = 0.0

[[record]]
compound = "CCC(C(=O)Oc1ccc(S(C)(=O)=O)cc1)c1coc2ccccc12 (stereo not drawn)"
classification = 1.0

[[record]]
compound = "CCC(C(=O)Oc1ccc([S+](C)[O-])cc1)c1c[nH]c2ccccc12 (stereo not drawn)"
classification = 0.0

[[record]]
compound = "CCC(C(=O)Oc1ccc(SC)cc1)c1cccn1C (stereo not drawn)"
classification = 0.0

[[record]]
compound = "CCC(C(=O)Oc1ccc([S+](C)[O-])cc1)c1ccoc1 (stereo not drawn)"
classification = 0.0


Please look at the following compound next.
Just wondering, is IC50 of CCC(C(=O)Oc1ccc([S+](C)[O-])cc1)c1cccn1C (stereo not drawn) below 1000 nM?
1.0

The values you see were collected from patent US5314910A.
